I'd be grateful if you could share measured Kd for these entries.
Target: T1, recombinant canine β NGF (canine, UniProt Q29074 110-229 (pig entry))
T1 construct: also called canine NGF
T1 chain: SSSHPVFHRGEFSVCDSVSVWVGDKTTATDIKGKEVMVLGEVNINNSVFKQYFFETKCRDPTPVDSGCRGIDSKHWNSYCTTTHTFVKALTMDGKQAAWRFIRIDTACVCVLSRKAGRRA
Assay: SPR (Biacore), mAb captured on goat anti-mouse IgG Fc, canine NGF injected; Expt 1

Below are worked cases with known answers.
{"binder": "PR-1254981 (antibody, mouse IgG1, V domains shown, also called 14A9; ML130-14A9.5B12) VH: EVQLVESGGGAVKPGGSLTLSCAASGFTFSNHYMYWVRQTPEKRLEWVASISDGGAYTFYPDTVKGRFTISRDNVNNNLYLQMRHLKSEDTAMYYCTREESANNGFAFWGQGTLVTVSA VL: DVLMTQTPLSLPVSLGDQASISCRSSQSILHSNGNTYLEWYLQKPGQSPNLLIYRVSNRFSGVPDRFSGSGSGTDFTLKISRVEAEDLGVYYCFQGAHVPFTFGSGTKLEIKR", "Kd": "14.7 pM"}
{"binder": "PR-1254977 (antibody, mouse IgG1, V domains shown, also called 21D4; ML129-21D4.4A11) VH: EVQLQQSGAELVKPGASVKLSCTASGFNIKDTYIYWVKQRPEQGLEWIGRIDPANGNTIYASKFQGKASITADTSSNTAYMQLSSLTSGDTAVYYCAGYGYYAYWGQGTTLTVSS VL: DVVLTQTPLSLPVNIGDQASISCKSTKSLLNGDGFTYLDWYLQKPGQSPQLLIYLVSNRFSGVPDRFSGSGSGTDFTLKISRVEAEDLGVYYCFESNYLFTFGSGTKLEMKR", "Kd": "< 13.9 pM"}

Now, please, on to the next binder.
Exercise: Note down Kd recorded for PR-1254982 (antibody, mouse IgG1, V domains shown, also called 3F7; ML130-3F7.4A8) VH: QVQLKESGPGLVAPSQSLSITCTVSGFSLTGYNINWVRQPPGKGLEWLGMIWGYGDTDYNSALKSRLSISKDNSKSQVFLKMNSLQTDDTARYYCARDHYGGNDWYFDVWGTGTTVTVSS VL: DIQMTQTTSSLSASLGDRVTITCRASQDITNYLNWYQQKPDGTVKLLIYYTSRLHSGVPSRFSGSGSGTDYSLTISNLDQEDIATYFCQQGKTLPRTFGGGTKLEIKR
Solution: < 0.1 pM

Provenance of the data: patent US20180362629A1
